- System: eIF2.GTP.Met-tRNAi ternary complex
- method: ATF-4 assay (firefly/renilla luciferase ratio) in CRL-2351 cell line
- Format: cell-based, human
- assay_setup: Homo sapiens, read-out: ATF-4 C[5] (μM): concentration corresponding to an activity threshold of 5
property_measured: log10 of EC (activity threshold of 5) (log10 of the value in µM)
Could you please treat all values as log10 of EC (activity threshold of 5) in µM?

Past entries and their recorded results:
O=C(Nc1cc(C(F)(F)F)cc(C(F)(F)F)c1)Nc1cc(C(F)(F)F)cc(C(F)(F)F)c1 [Compound 3] : 0.18
Cc1ccc(NC(=O)Nc2ccc(Cl)c(C(F)(F)F)c2)cc1O [Compound 5] : 0.78
Cc1ccc(NC(=O)Nc2ccc(Cl)c(C(F)(F)F)c2)cc1OCCN1CCOCC1 [Compound 16] : 0.85
O=C(Nc1cc(C(F)(F)F)cc(C(F)(F)F)c1)Nc1ncccc1O [Compound 28] : 1.60

Cc1ccc(NC(=O)Nc2cc(C(F)(F)F)cc(C(F)(F)F)c2)cc1OCCN1CCOCC1 [Compound 17] tested on eIF2.GTP.Met-tRNAi ternary complex gave log10 of EC (activity threshold of 5): 0.48

Bench note, eIF2.GTP.Met-tRNAi ternary complex: entry COc1cc(NC(=O)Nc2ccc(Cl)c(C(F)(F)F)c2)ccc1C [Compound 8] , its log10 of EC (activity threshold of 5) = 0.48

Lab note: compound Cc1ccc(NC(=O)Nc2ccc(Cl)c(C(F)(F)F)c2)cc1OCCN(C)C [Compound 12] tested on eIF2.GTP.Met-tRNAi ternary complex; recorded log10 of EC (activity threshold of 5) was 0.85

The compound O=C(Nc1ccc(Cl)c(Cl)c1)Nc1ccc(Cl)c(Cl)c1 [Compound 1, 1,3-bis(3,4-dichlorophenyl)urea] , when measured on eIF2.GTP.Met-tRNAi ternary complex, yielded log10 of EC (activity threshold of 5) of 0.30

Form: item Cc1ccc(NC(=O)Nc2cc(C(F)(F)F)cc(C(F)(F)F)c2)cc1OCCN(C)C [Compound 13] ; test system eIF2.GTP.Met-tRNAi ternary complex; log10 of EC (activity threshold of 5): 0.70
